tested on: SW872; assay: relative viability vs DMSO control (72 h) (fraction); higher = more viable cells; conditions: 0.00457 µM
metric_name: relative viability

Req: Using the record for COc1cc(OC)cc(N(CCNC(C)C)c2ccc3ncc(-c4cnn(C)c4)nc3c2)c1 , report its relative viability.
Resp: 1.01

Req: # get_value(readout='relative viability', item= Cc1ccc(C(=O)OCc2ccc([C@@H](CN)C(=O)Nc3ccc4cnccc4c3)cc2)c(C)c1 )
Resp: 0.988

Req: What relative viability value was documented for this compound, Cc1cc(Nc2ncc(Cl)c(Nc3ccccc3S(=O)(=O)C(C)C)n2)c(OC(C)C)cc1C1CCNCC1 ?
Resp: 1.06

Req: Report relative viability for Cc1cccc(-c2[nH]c(CNc3ccccc3F)nc2-c2ccc3ncnn3c2)n1 please.
Resp: 0.958

Req: Data request, read-out relative viability, for C[C@H]1Oc2cc(cnc2N)-c2c(nn(C)c2C#N)CN(C)C(=O)c2ccc(F)cc21
Resp: 1.04

Req: Look up relative viability: N#Cc1ccnc(N2C(=O)CC[C@H]2C(=O)N(c2cncc(F)c2)[C@H](C(=O)NC2CC(F)(F)C2)c2ccccc2Cl)c1
Resp: 1.05

Req: For CN(C)C[C@@H]1CCn2cc(c3ccccc32)C2=C(C(=O)NC2=O)c2cn(c3ccccc23)CCO1 , what is its reported relative viability?
Resp: 1.06

Req: Name the reported relative viability value associated with the compound CCCCCCCCCCCCCCCCCCOP(=O)([O-])OC1CC[N+](C)(C)CC1
Resp: 1.03

Req: Look up relative viability for this compound: Cc1cn(-c2cc(NC(=O)c3ccc(C)c(Nc4nccc(-c5cnccn5)n4)c3)cc(C(F)(F)F)c2)cn1
Resp: 1.07

Req: Given the compound COc1cc2nccc(Oc3ccc(NC(=O)C4(C(=O)Nc5ccc(F)cc5)CC4)cc3)c2cc1OC [Cabozantinib] , what is its reported relative viability?
Resp: 1.11

Req: Item COc1cc2nccc(Oc3ccc(NC(=O)NC4CC4)c(Cl)c3)c2cc1C(N)=O has what recorded relative viability?
Resp: 1.07

Req: Can you share its relative viability? I mean this compound: CCCS(=O)(=O)N[C@H]1C[C@@H](N(C)c2ncnc3[nH]ccc23)C1
Resp: 1

Req: Look up relative viability: FC(F)(F)c1ccc(CNc2ccc(Cc3c[nH]c4ncc(Cl)cc34)cn2)cn1
Resp: 1.08
